Measured MIC of individual entries
- Tested on: Klebsiella pneumoniae
- METHOD DESCRIPTION: Antimicrobial activity against Klebsiella pneumoniae after 24 hr by serial dilution method
- Assay type: functional

Below: 4 molecules and their reported MIC.
1. CC1C(=NO)C(C)C(c2ccco2)NC1c1ccco1 (stereo not given) | 6.25 µg/mL
2. CC1/C(=N\O)CC(c2ccco2)NC1c1ccco1 (stereo not given) | 12.5 µg/mL
3. CC1C(=O)C(C)C(c2ccco2)NC1c1ccco1 (stereo not given) | 100 µg/mL
4. CN[C@@H]1[C@H](O[C@H]2[C@H](O[C@H]3[C@H](O)[C@@H](O)[C@H](N=C(N)N)[C@@H](O)[C@@H]3N=C(N)N)O[C@@H](C)[C@]2(O)C=O)O[C@@H](CO)[C@H](O)[C@H]1O | 25 µg/mL

The measured MIC that CCC1/C(=N\O)CC(c2ccco2)NC1c1ccco1 (stereo not given) showed for Klebsiella pneumoniae is 6.25 µg/mL

Origin of measurements: ChEMBL document CHEMBL3045318
